Examples of binders with documented pIC50 follow.
# study target: human Y4 receptor (human, UniProt P50391 1-375)
# Sequence (P50391 whole entry): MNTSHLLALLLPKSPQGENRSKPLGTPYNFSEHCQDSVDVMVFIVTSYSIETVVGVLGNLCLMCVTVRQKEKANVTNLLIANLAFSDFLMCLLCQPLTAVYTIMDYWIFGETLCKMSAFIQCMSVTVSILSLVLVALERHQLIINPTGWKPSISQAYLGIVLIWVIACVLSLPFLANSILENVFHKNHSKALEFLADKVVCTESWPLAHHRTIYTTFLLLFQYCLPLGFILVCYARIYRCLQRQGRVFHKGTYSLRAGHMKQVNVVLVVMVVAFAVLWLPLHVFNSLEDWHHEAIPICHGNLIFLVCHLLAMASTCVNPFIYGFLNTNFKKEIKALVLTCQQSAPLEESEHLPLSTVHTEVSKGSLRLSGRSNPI
# method notes: 125I-PP displacement
# log scale: pIC50 equals minus log10 of the concentration in mol/L

Example binders with recorded pIC50:
PAPLEPVYPGDNATPEQKAKYAAELRRYIDRLTRPRY [4061091]: 9.97
GAPLEPVAPGDNATPEQMARYYSELRRYIDKLTRPRY [4060690]: 9.77
GAPLEPEYPGDNATPEQKARYAAALRRYINKLTRPRY [4060309]: 10.34

Qu. Recorded pIC50 for GAPLEPTYPGDNATPEQKAKYYSELRRYINKLTRPRY [4060279] , please?
Ans. 10.17

Qu. So what's the measured pIC50 for this one? GAPLEPTYPGDDATPEQLAKYYSELRRYINHLTRPRY [4060306]
Ans. 10.01

Qu. Dear colleague, I am looking for the recorded pIC50 of the following binder: AAPLEPKYPGDNATPEQLAKYAAELRRYIDKLTRPRY [4060696]
Ans. 9.82
